System: HOP-62 NSCLC
assayText: NCI-60 one-dose screen, 48 h (100 = growth as untreated, 0 = no growth, -100 = all killed)
conditionSummary: 10 µM unless noted
The panel holds about 83,000 compounds, 20% with a hit somewhere; the sample as a whole holds those more often.
Please use 1 (yes) whenever growth is not below 80%, and 0 (no) whenever it is.

compound	systemTested	answerLabel
OCC1C2C=CC(C2)C1CO (stereo unspecified)	HOP-62 NSCLC	1 (yes)
CN1CCOCCOCCOc2ccccc2NC(=O)c2nc(cnc2N)-c2ccc(cc2)S1(=O)=O	HOP-62 NSCLC	1 (yes)
CC/C(Cc1ccccc1)=C(\c1ccc(OCCN2CCCC2)cc1)c1ccc(OC(C)=O)cc1	HOP-62 NSCLC	1 (yes)
Fc1ccc(Cc2ccc(F)cc2)cc1	HOP-62 NSCLC	1 (yes)
Oc1ccccc1N=Cc1c(O)ccc2ccccc12	HOP-62 NSCLC	1 (yes)
COc1ccc(C/C(C)=C(\c2ccc(OCCN3CCCCCC3)cc2)c2ccc(OC(=O)C3CCCCC3)cc2)cc1	HOP-62 NSCLC	0 (no)

----------
System: HCT-15 colon
assayText: NCI-60 one-dose screen, 48 h (100 = growth as untreated, 0 = no growth, -100 = all killed)
conditionSummary: 10 µM unless noted
About 83,000 compounds went through this panel and 20% of them were active in at least one assay; those are over-represented in the sample as a whole.
reportedEndpoint: growth (%)

compound	systemTested	reportedEndpoint	uom	valueReported
COc1cccc2c1C(=O)c1c(O)c3c(c(O)c1C2=O)C[C@@](O)(/C(C)=N/NC(=O)c1ccc(Cl)cc1)C[C@@H]3OC1CC(N)C(O)C(C)O1 (stereo not given in full)	HCT-15 colon	growth	%	16.4
C[C@H](CCC(=O)O)[C@H]1CC[C@H]2[C@@H]3CC[C@@H]4/C(=C\c5ccco5)C(=O)/C(=C\c5ccco5)C[C@]4(C)[C@H]3CC[C@]12C	HCT-15 colon	growth	%	28.5
Nc1ccc(N2CCOCC2)cc1	HCT-15 colon	growth	%	103
COC1C/C(=N\O)C2OC(c3ccccc3)OCC2O1 (stereo not given)	HCT-15 colon	growth	%	97.8
CCCCCCCCCCCCCC(=O)C(C)N (stereo not given)	HCT-15 colon	growth	%	3.51
CCN(CC)Cc1cc(Nc2c3ccccc3nc3cc(Cl)ccc23)ccc1O	HCT-15 colon	growth	%	-28.6
CCCCCCCCCCCCCC1=NCCN1CCO	HCT-15 colon	growth	%	47.2
COc1cc(C2CC(=O)Nc3c2c(C)nn3-c2nc3ccccc3[nH]2)cc(OC)c1OC (stereo not given)	HCT-15 colon	growth	%	101
CCCCCC(=O)N(CCCC)CCCC	HCT-15 colon	growth	%	96.8
O=S(=O)(NCCCNc1cc(-c2cn(-c3ccccc3)nc2-c2ccccc2)ccn1)c1ccc(C(F)(F)F)cc1	HCT-15 colon	growth	%	41

----------
Test system: SW-620 colon
assayText: NCI-60 one-dose screen, 48 h (100 = growth as untreated, 0 = no growth, -100 = all killed)
conditionSummary: 10 µM unless noted
The panel holds about 83,000 compounds, 20% with a hit somewhere; the sample as a whole holds those more often.
Please use Criterion met whenever growth is not below 90%, and Criterion not met whenever it is.

molecule	answerLabel
C=C1CC2(OC1=O)C(=O)N(CCCCCCCN1C(=O)C3(CC(=C)C(=O)O3)c3ccccc31)c1ccccc12 (stereo unspecified)	Criterion not met
COC1=CC(=O)C(OC)=C(OC)C1=O	Criterion met
CCc1ccc(C(c2ccc(CC)cc2)C(Cl)(Cl)CCl)cc1	Criterion not met
COc1ccc(-n2cc(-c3ccccc3)c3c(SCC(=O)N/N=C/c4ccc([N+](=O)[O-])cc4)ncnc32)cc1	Criterion met
CCC(=O)OCc1cccc(OC)c1	Criterion met
CSc1nc2sc3c(c2c(=O)n1-c1ccc(C(C)C)cc1)CCC(=O)C3	Criterion not met
